assay remarks: Cmax in Beagle dog at 1 mg/kg, po by cassette dosing
Type: ADME, organism-based, Canis lupus familiaris
Set-up: dose 1 mg/kg, route oral
condition notes: in vivo
Reported values of Cmax for individual entries

Recorded results for 5 molecules are shown here.
> print(dat)
                                   molecule  result
1  COCCN(CCOC)c1nc(C)nc2c(-c3ccc(OC)nc3C)c(C)nn12  275 nM
2  CC[C@H](C)Nc1nc(C)nc2c(-c3ccc(OC)nc3C)c(C)nn12  168 nM
3  COCCN(CCOC)c1nc(C)nc2c(-c3ccc(OC)cc3C)c(C)nn12.O=S(=O)(O)c1ccccc1  369 nM
4  CC[C@@H](C)Nc1nc(C)nc2c(-c3ccc(OC)nc3C)c(C)nn12 [PEXACERFONT]  301 nM
5  CCCC(C)Nc1nc(C)nc2c(-c3ccc(OC)nc3C)c(C)nn12 (stereo unspecified)  156 nM

We next turn to a different molecule, shown below.
// query Dear colleague, I am looking for the recorded Cmax of the following molecule: COCCN(CC1CC1)c1nc(C)nc2c(-c3ccc(OC)nc3C)c(C)nn12
// result 314 nM

All values here come from ChEMBL document CHEMBL1138476.
